Target protein (sequence): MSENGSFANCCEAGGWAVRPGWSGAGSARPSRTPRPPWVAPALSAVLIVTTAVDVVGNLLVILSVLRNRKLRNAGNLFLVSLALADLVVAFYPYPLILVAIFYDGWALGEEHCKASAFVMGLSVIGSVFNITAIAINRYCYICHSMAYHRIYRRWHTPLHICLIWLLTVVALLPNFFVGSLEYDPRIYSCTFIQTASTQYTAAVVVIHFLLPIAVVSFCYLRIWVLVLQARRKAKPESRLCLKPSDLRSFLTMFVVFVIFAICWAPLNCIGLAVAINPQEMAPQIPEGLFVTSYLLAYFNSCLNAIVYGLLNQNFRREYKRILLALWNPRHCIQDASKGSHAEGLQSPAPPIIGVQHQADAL
metric name: IC50 (nM)

molecule	metric name	observed
CCC(=O)NC1Cc2ccccc2C(c2ccccc2)C1 (stereo not shown) [4-P-PDOT, reference compound]	IC50	0.497
